# targetEntity: MvitGOBP1 (Maruca vitrata, UniProt A0A0S1S6H9)
# Sequence (A0A0S1S6H9 entry or part of it): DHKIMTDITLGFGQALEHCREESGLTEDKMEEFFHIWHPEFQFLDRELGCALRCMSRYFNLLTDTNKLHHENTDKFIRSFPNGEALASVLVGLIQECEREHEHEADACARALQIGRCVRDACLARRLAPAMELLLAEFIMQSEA
# runDescription: Fluorescence competitive binding assay (1-NPN displacement) with recombinant MvitGOBP1
# setupConditions: dissociation constant calculated from IC50; 1-NPN competition; read-out: MvitGOBP1 Ki
pKi: −log10 of the molar value.
measureName: pKi

1. CC(=O)c1ccc(C)cc1C: 4.74

1 = CCc1ccc(CC)cc1
2 = Oc1cccc2[nH]ccc12
[in] Between the entries labeled 1 and 2 , whose measured pKi is lower? Pick one; state its label.
[out] 1
(1: 4.72, 2: 4.96)

###

# targetEntity: MvitGOBP2 (Maruca vitrata, UniProt A0A088MJX9)
# Sequence (A0A088MJX9 entry or part of it): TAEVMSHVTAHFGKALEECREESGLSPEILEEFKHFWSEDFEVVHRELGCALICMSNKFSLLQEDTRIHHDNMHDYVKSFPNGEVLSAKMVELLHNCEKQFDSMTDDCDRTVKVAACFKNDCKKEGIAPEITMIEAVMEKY
# runDescription: Fluorescence competitive binding assay (1-NPN displacement) with recombinant MvitGOBP2
measureName: pIC50
pIC50 (log units): -log10 of the concentration in mol/L.

[in] # return recorded pIC50 for input CC(=O)c1ccc(C(C)=O)cc1
[out] 4.30

[in] # return recorded pIC50 for input CCc1ccc(C(C)=O)cc1
[out] 4.35

[in] # return recorded pIC50 for input O=Cc1ccccc1O [Compound 7, 2-hydroxybenzaldehyde]
[out] 4.38

###

# targetEntity: UniProt A0A0S1S6H9
# runDescription: Fluorescence competitive binding assay (1-NPN displacement) with recombinant MvitGOBP1
# setupConditions: dissociation constant calculated from IC50; 1-NPN competition; read-out: MvitGOBP1 Ki
pKi: −log10 of the molar value.
measureName: pKi

Use these answered entries as a reference point.
1) CCCCOC(=O)CCC [Compound 1, Butanoic acid butyl ester]: 4.90
2) CC(=O)c1ccc(O)c(C)c1 [Compound 14, 4-hydroxy-3-methylacetophenone]: 4.74
3) Cc1cc(C)cc(C(C)(C)C)c1 [Compound 17]: 4.78
4) CC(C=O)Cc1ccccc1 (stereo not shown) [Compound 11, 2-methyl-3-phenylpropanal]: 4.75
5) C=C(C)[C@H]1CC=C(C)CC1 [Compound 2, Limonene]: 4.86

A = CCc1ccc(C=O)cc1 [Compound 8, 4-ethylbenzaldehyde]
B = CCCCCCCCOC(=O)CCC [Compound 9, Butanoic acid octyl ester]
[in] Could you please tell me which of these two has the higher pKi: A or B ? Pick one; state its label.
[out] A
(A: 4.85, B: 4.57)

###

# targetEntity: MvitGOBP1 (Maruca vitrata, UniProt A0A0S1S6H9)
# runDescription: Fluorescence competitive binding assay (1-NPN displacement) with recombinant MvitGOBP1
# setupConditions: ligand concentration displacing 50% of fluorescence of MvitGOBP1/1-NPN complex; protein and 1-NPN 2 μM, pH 7.4, 25°C; read-out: MvitGOBP1 IC50
measureName: IC50 (µM)

Use these answered entries as a reference point.
1. CC(=O)c1ccc(C)cc1C [Compound 12, 1-(2,4-Dimethylphenyl)-ethanone]: 24.2
2. CC(=O)c1ccc(O)c(C)c1 [Compound 14, 4-hydroxy-3-methylacetophenone]: 24.6
3. Cc1cc(C)cc(C(C)(C)C)c1 [Compound 17]: 22.6
4. CCc1cccc(CC)c1 [Compound 3, 1,3-diethylbenzene]: 38.7
5. CCc1ccc(C=O)cc1 [Compound 8, 4-ethylbenzaldehyde]: 19.1
6. CC(C=O)Cc1ccccc1 (stereo not shown) [Compound 11, 2-methyl-3-phenylpropanal]: 23.9
7. CCCCCCCCOC(=O)CCC [Compound 9, Butanoic acid octyl ester]: 36.1
8. CC(=O)c1ccccc1 [Compound 6, Acetophenone]: 28.5

a = Oc1cccc2[nH]ccc12 [Compound 15, 1H-indol-4-ol]
b = CCc1ccc(CC)cc1 [Compound 4, 1,4-diethylbenzene]
[in] Could you please tell me which of these two has the higher IC50: a or b ? Pick one; state its label.
[out] b

###

# targetEntity: UniProt:A0A088MJX9
# runDescription: Fluorescence competitive binding assay (1-NPN displacement) with recombinant MvitGOBP2
# setupConditions: dissociation constant calculated from IC50; 1-NPN competition; read-out: MvitGOBP2 Ki
measureName: Ki (µM)

Use these answered entries as a reference point.
1) CCC(=O)c1ccc(CC)cc1: 26
2) CC(=O)c1ccc(O)c(C)c1 [Compound 14, 4-hydroxy-3-methylacetophenone]: 17.1

P = CCCCCCCCOC(=O)CCC
Q = CCc1cccc(CC)c1
[in] Between the entries labeled P and Q , whose measured Ki is lower? Pick one; state its label.
[out] P
(P: 8.5 µM, Q: 22.4 µM)

###

# targetEntity: MvitGOBP1 (Maruca vitrata)
# runDescription: Fluorescence competitive binding assay (1-NPN displacement) with recombinant MvitGOBP1
# setupConditions: dissociation constant calculated from IC50; 1-NPN competition; read-out: MvitGOBP1 Ki
pKi: −log10 of the molar value.
measureName: pKi

1) CC(=O)c1ccccc1: 4.67
2) CCc1cccc(CC)c1: 4.54
3) CCC(=O)c1ccc(CC)cc1: 4.82

###

Reported IC50 values for a set of molecules
# targetEntity: UniProtKB A0A0S1S6H9
# runDescription: Fluorescence competitive binding assay (1-NPN displacement) with recombinant MvitGOBP1
# setupConditions: ligand concentration displacing 50% of fluorescence of MvitGOBP1/1-NPN complex; protein and 1-NPN 2 μM, pH 7.4, 25°C; read-out: MvitGOBP1 IC50
State just the number; it will be interpreted in µM.

Use these answered entries as a reference point.
1. C=C(C)[C@H]1CC=C(C)CC1 [Compound 2, Limonene]: 18.6
2. CCC(=O)c1ccc(CC)cc1 [Compound 13, 4-ethylpropiophenone]: 20.4

[in] Write down measured IC50 (UniProtKB A0A0S1S6H9) for this molecule. CCCCOC(=O)CCC [Compound 1, Butanoic acid butyl ester]
[out] 16.8

Origin of values: paper PMC4627759
